Where do the numbers come from? From paper PMC4648050.

- target or test system: EPH A2 (Homo sapiens)
- Sequence (P29317 24-976): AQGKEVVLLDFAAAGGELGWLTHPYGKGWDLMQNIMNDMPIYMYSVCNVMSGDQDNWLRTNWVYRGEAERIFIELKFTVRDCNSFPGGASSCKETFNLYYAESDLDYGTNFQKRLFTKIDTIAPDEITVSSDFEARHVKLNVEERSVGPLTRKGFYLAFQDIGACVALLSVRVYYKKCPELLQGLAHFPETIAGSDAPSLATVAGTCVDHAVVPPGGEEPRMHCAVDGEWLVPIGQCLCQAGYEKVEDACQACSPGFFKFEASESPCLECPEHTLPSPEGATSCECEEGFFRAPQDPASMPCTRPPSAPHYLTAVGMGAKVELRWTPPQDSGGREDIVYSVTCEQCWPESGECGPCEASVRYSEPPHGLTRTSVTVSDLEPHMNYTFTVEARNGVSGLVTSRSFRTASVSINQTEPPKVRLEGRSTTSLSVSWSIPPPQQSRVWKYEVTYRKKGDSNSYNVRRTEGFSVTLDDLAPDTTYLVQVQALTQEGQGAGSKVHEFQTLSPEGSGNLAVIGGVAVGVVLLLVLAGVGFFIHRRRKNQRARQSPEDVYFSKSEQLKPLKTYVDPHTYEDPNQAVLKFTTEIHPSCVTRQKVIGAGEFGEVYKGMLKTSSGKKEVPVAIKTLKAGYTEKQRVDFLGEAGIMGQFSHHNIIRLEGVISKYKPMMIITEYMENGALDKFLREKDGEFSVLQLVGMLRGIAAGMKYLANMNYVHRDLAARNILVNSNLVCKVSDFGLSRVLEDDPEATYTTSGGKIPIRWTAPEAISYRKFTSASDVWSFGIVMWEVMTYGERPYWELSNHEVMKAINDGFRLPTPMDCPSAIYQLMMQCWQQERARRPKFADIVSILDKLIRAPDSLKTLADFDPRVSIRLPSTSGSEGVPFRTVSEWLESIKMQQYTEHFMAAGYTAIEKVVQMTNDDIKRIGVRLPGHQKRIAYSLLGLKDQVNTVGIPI
- test description: Kinase panel: EPH A2
- Format: biochemical, human/mammalian
- test parameters: compound at 10 μM, read-out: % of activity respect of the control
Please go through the items and note down their remaining activity at 10 µM.
Answer with a number only, understood to be in %.

In: Provide measured remaining activity at 10 µM on EPH A2 (Homo sapiens) for O=c1[nH]c2ncc(-c3ccc(F)cc3)nc2n1CC1CC1 please.
Out: 96

In: Provide measured remaining activity at 10 µM on EPH A2 (Homo sapiens) for CC(c1ccccc1)n1c(=O)[nH]c2ncc(-c3ccc(F)cc3)nc21 (stereo not shown) please.
Out: 105

In: Provide measured remaining activity at 10 µM on EPH A2 (Homo sapiens) for C[C@H](c1ccccc1)n1c(=O)[nH]c2ncc(-c3ccccc3)nc21 please.
Out: 89

In: Provide measured remaining activity at 10 µM on EPH A2 (Homo sapiens) for O=c1[nH]c2ncc(-c3ccc(F)cc3)nc2n1C1CCCCC1 please.
Out: 97

* * *

- target or test system: SRPK1 (Homo sapiens, UniProt Q96SB4)
- Sequence (Q96SB4 whole entry): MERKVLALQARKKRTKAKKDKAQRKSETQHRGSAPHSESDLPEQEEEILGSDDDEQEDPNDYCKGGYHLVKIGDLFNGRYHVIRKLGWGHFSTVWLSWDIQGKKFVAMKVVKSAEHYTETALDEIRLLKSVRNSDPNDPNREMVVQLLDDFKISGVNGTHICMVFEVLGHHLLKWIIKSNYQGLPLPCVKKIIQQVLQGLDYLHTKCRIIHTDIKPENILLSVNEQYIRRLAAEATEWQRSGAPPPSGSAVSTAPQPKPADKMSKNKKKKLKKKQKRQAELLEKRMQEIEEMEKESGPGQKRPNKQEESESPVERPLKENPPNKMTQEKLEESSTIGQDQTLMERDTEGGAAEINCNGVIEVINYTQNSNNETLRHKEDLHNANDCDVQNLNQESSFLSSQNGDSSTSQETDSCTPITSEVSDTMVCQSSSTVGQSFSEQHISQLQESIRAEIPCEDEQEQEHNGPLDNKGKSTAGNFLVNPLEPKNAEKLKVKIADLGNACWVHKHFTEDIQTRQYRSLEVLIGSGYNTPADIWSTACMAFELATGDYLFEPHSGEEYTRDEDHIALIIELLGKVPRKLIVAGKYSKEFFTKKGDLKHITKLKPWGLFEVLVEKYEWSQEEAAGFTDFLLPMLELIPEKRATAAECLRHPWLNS
- test description: Kinase panel: SRPK1
- Format: biochemical, human/mammalian
- test parameters: compound at 10 μM, read-out: % of activity respect of the control
measured quantity: remaining activity at 10 µM (%)
Answer with a number only, understood to be in %.

In: Give a short answer stating reported remaining activity at 10 µM for O=c1[nH]c2ncc(-c3ccc(F)cc3)nc2n1C1CCCCC1 .
Out: 88

In: Give a short answer stating reported remaining activity at 10 µM for O=c1[nH]c2ncc(-c3ccc(F)cc3)nc2n1CC1CC1 .
Out: 89

In: Give a short answer stating reported remaining activity at 10 µM for C[C@H](c1ccccc1)n1c(=O)[nH]c2ncc(-c3ccccc3)nc21 .
Out: 75

In: Give a short answer stating reported remaining activity at 10 µM for CC(c1ccccc1)n1c(=O)[nH]c2ncc(-c3ccc(F)cc3)nc21 (stereo not shown) .
Out: 80

* * *

- test description: Kinetic aqueous solubility (laser nephelometry)
- Type: physicochemical
- test parameters: Milli-Q water with 2.5% DMSO, kinetic from dmso stock, range 250–12 μM, read-out: Aq. Sol. (aqueous kinetic solubility)
Please go through the items and note down their solubility kinetic.
Answer with a number only, understood to be in µM.

In: Give a short answer stating reported solubility kinetic for O=c1[nH]c2ncc(-c3ccccc3)cc2n1C1CCCCC1 .
Out: 36

In: Give a short answer stating reported solubility kinetic for O=c1[nH]c2ncc(-c3ccc(F)cc3)nc2n1C1CCCCC1 .
Out: 55

In: Give a short answer stating reported solubility kinetic for O=c1[nH]c2ncc(-c3cccnc3)cc2n1C1CCCCC1 .
Out: 180

In: Give a short answer stating reported solubility kinetic for O=c1[nH]c2ncc(-c3ccccc3F)nc2n1C1CCCCC1 .
Out: 20

In: Give a short answer stating reported solubility kinetic for O=c1[nH]c2ncc(-c3ccccc3)nc2n1C1CCOCC1 .
Out: 55

* * *

- target or test system: UniProt:P17948
- Sequence (P17948 27-1338): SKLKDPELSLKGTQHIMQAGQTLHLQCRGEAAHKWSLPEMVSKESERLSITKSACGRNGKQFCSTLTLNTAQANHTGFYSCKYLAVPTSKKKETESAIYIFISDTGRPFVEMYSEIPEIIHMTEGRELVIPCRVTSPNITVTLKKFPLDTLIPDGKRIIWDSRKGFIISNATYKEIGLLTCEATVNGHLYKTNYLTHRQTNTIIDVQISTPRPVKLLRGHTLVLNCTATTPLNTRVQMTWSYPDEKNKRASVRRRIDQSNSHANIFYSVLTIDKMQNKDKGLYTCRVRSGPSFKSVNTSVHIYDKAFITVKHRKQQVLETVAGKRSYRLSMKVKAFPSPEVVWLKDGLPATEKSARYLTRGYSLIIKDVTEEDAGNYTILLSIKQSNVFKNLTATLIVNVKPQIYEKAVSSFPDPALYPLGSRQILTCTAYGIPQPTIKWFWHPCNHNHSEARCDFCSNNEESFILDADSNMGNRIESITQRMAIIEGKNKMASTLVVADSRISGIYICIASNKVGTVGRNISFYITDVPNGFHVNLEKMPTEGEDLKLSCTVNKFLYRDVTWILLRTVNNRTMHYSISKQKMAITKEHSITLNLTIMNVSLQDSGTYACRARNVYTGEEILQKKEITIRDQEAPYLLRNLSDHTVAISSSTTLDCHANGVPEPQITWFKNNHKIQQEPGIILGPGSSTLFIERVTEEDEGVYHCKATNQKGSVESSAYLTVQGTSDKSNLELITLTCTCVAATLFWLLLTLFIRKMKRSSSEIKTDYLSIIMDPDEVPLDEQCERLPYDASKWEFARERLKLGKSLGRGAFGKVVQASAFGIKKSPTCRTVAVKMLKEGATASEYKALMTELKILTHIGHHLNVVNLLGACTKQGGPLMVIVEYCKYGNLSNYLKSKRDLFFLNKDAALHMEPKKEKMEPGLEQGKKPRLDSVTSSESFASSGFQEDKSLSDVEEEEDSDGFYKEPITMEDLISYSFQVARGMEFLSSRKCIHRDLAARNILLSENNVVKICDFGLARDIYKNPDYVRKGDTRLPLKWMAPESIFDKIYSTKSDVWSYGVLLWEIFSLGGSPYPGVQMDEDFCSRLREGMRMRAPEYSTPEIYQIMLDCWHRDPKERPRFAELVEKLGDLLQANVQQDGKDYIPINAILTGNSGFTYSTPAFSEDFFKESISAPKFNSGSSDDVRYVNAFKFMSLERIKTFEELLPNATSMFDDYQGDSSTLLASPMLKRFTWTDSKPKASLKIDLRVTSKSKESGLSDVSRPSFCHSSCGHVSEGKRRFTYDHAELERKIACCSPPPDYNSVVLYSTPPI
- test description: Kinase panel: VEG-FR
- Assay type: biochemical, human/mammalian
- test parameters: compound at 10 μM, read-out: % of activity respect of the control
Please go through the items and note down their remaining activity at 10 µM.
Answer with a number only, understood to be in %.

In: Give a short answer stating reported remaining activity at 10 µM for CC(c1ccccc1)n1c(=O)[nH]c2ncc(-c3ccc(F)cc3)nc21 (stereo not shown) [Compound 1] .
Out: 117

In: Give a short answer stating reported remaining activity at 10 µM for O=c1[nH]c2ncc(-c3ccc(F)cc3)nc2n1CC1CC1 [Compound 10] .
Out: 98

In: Give a short answer stating reported remaining activity at 10 µM for C[C@H](c1ccccc1)n1c(=O)[nH]c2ncc(-c3ccccc3)nc21 [Compound 14] .
Out: 73

In: Give a short answer stating reported remaining activity at 10 µM for O=c1[nH]c2ncc(-c3ccc(F)cc3)nc2n1C1CCCCC1 [Compound 12] .
Out: 107

* * *

Please go through the items and note down their remaining activity at 10 µM.
- target or test system: ERK8 (Homo sapiens, UniProt Q8TD08)
- test description: Kinase panel: ERK8
- Type: biochemical, human/mammalian
- test parameters: compound at 10 μM, read-out: % of activity respect of the control
Answer with a number only, understood to be in %.

In: Give a short answer stating reported remaining activity at 10 µM for O=c1[nH]c2ncc(-c3ccc(F)cc3)nc2n1CC1CC1 [Compound 10] .
Out: 70

In: Give a short answer stating reported remaining activity at 10 µM for O=c1[nH]c2ncc(-c3ccc(F)cc3)nc2n1C1CCCCC1 [Compound 12] .
Out: 80

In: Give a short answer stating reported remaining activity at 10 µM for C[C@H](c1ccccc1)n1c(=O)[nH]c2ncc(-c3ccccc3)nc21 [Compound 14] .
Out: 79

In: Give a short answer stating reported remaining activity at 10 µM for CC(c1ccccc1)n1c(=O)[nH]c2ncc(-c3ccc(F)cc3)nc21 (stereo not shown) [Compound 1] .
Out: 73

* * *

- target or test system: HIPK2 (Homo sapiens, UniProt Q9H2X6)
- Sequence (Q9H2X6 whole entry): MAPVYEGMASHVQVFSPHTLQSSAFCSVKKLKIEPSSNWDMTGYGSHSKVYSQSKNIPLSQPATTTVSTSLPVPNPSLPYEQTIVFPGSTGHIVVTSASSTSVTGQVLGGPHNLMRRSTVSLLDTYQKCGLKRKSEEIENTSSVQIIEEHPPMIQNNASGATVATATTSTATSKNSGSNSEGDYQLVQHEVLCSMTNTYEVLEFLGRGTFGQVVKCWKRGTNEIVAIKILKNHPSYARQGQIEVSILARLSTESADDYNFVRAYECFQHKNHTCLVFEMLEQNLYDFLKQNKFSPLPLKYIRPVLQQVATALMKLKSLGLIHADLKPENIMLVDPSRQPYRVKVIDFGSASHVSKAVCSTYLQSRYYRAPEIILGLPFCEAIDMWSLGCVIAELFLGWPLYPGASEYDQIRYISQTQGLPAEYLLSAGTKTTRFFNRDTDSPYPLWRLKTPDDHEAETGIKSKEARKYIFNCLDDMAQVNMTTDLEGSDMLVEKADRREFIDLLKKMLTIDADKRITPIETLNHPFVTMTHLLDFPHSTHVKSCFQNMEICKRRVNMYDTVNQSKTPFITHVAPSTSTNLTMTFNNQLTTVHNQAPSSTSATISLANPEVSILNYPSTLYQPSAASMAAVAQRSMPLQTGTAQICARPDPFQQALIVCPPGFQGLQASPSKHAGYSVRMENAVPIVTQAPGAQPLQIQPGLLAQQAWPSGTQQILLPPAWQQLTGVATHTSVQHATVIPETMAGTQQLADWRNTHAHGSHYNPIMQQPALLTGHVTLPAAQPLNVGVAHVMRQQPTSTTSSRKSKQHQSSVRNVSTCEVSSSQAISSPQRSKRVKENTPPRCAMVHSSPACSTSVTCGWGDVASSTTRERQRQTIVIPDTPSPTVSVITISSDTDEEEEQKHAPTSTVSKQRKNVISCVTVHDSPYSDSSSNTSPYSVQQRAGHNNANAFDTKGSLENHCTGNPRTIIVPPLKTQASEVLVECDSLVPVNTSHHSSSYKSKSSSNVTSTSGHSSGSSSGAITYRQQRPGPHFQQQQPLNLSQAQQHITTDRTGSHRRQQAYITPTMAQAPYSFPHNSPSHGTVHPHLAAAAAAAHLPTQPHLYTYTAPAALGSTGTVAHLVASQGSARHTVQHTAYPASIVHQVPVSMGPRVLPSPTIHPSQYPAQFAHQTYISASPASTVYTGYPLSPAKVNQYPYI
- test description: Kinase panel: HIPK2
- Format: biochemical, human/mammalian
- test parameters: compound at 10 μM, read-out: % of activity respect of the control
Please go through the items and note down their remaining activity at 10 µM.
Give the figure together with its unit, number first.

In: Give a short answer stating reported remaining activity at 10 µM for O=c1[nH]c2ncc(-c3ccc(F)cc3)nc2n1C1CCCCC1 .
Out: 97%

In: Give a short answer stating reported remaining activity at 10 µM for O=c1[nH]c2ncc(-c3ccc(F)cc3)nc2n1CC1CC1 .
Out: 69%

In: Give a short answer stating reported remaining activity at 10 µM for CC(c1ccccc1)n1c(=O)[nH]c2ncc(-c3ccc(F)cc3)nc21 (stereo not shown) .
Out: 101%

In: Give a short answer stating reported remaining activity at 10 µM for C[C@H](c1ccccc1)n1c(=O)[nH]c2ncc(-c3ccccc3)nc21 .
Out: 80%

* * *

- target or test system: MST2 (Homo sapiens, UniProt Q13188)
- Sequence (Q13188 1-491): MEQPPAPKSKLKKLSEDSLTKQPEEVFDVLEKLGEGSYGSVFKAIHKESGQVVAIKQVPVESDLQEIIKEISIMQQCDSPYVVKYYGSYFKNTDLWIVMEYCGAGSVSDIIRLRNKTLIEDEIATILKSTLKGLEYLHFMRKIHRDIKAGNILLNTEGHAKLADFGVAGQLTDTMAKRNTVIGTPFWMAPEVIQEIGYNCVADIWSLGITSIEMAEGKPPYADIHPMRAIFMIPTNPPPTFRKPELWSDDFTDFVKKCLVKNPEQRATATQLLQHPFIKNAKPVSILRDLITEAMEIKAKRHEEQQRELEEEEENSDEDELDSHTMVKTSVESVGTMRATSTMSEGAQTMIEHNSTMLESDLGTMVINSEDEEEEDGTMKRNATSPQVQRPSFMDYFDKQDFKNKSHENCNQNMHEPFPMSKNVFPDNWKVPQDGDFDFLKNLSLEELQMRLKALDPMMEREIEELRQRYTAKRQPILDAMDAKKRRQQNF
- test description: Kinase panel: MST2
- Assay type: biochemical, human/mammalian
- test parameters: compound at 10 μM, read-out: % of activity respect of the control
- Experimental: The DDU kinase-focused compound set contains lead-like scaffolds that are designed to target protein kinases; they have kinase hinge binding motifs. Four of the 1H-imidazopyrazinones were screened against a human/mammalian kinase panel at the University of Dundee (http://www.kinase-screen.mrc.ac.uk) at a concentration of 10 μM. At the time of testing the panel contained 79 mammalian kinases selected to provide a broad coverage of the mammalian kinome (∼500 kinases in the human genome).[3] […]
measured quantity: remaining activity at 10 µM (%)
Answer with a number only, understood to be in %.

In: Give a short answer stating reported remaining activity at 10 µM for O=c1[nH]c2ncc(-c3ccc(F)cc3)nc2n1C1CCCCC1 [Compound 12] .
Out: 94

In: Give a short answer stating reported remaining activity at 10 µM for C[C@H](c1ccccc1)n1c(=O)[nH]c2ncc(-c3ccccc3)nc21 [Compound 14] .
Out: 78

In: Give a short answer stating reported remaining activity at 10 µM for O=c1[nH]c2ncc(-c3ccc(F)cc3)nc2n1CC1CC1 [Compound 10] .
Out: 92

In: Give a short answer stating reported remaining activity at 10 µM for CC(c1ccccc1)n1c(=O)[nH]c2ncc(-c3ccc(F)cc3)nc21 (stereo not shown) [Compound 1] .
Out: 86

* * *

Please go through the items and note down their remaining activity at 10 µM.
- target or test system: CSK (Homo sapiens)
- Sequence (P41240 whole entry): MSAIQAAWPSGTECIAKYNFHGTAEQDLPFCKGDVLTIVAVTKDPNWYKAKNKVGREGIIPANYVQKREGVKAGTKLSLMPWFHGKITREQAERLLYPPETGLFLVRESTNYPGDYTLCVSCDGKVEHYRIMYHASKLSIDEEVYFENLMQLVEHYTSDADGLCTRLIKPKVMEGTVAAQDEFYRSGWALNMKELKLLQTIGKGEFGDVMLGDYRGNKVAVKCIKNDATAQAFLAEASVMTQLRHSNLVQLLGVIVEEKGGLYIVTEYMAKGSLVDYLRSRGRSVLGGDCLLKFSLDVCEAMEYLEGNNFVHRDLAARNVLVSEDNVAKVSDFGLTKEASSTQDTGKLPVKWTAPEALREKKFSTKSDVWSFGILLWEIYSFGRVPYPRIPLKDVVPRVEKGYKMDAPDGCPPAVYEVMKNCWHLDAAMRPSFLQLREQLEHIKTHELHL
- test description: Kinase panel: CSK
- Assay type: biochemical, human/mammalian
- test parameters: compound at 10 μM, read-out: % of activity respect of the control

In: Give a short answer stating reported remaining activity at 10 µM for CC(c1ccccc1)n1c(=O)[nH]c2ncc(-c3ccc(F)cc3)nc21 (stereo not shown) .
Out: 100%

In: Give a short answer stating reported remaining activity at 10 µM for C[C@H](c1ccccc1)n1c(=O)[nH]c2ncc(-c3ccccc3)nc21 .
Out: 77%

In: Give a short answer stating reported remaining activity at 10 µM for O=c1[nH]c2ncc(-c3ccc(F)cc3)nc2n1C1CCCCC1 .
Out: 90%

In: Give a short answer stating reported remaining activity at 10 µM for O=c1[nH]c2ncc(-c3ccc(F)cc3)nc2n1CC1CC1 .
Out: 93%
